- assayOverview: ATG_XTT_Cytotoxicity: Cytotoxicity Assessment in the Attagene TRANS-FACTORIAL HepG2 Assay (AID 2283584)
Inconclusive results are not listed. Active and inactive are the calls of the source. How the source made its calls: active means hit-call score of the fitted dose curve at least 0.9, where 1 is the maximum; inconclusive means response in the unintended direction; inactive means score below 0.9.
Valid outcomes are listed here; reply with one: TRUE = active, FALSE = inactive

[[record]]
compound = "CCc1cccc(C)c1N(C(=O)C(=O)O)C(C)COC (centres undefined)"
classlabel = "FALSE"

[[record]]
compound = "CCc1cc(Cc2cc(CC)c(N)c(CC)c2)cc(CC)c1N"
classlabel = "FALSE"

[[record]]
compound = "CCC(Cc1c(I)cc(I)c(N)c1I)C(=O)O (centres undefined)"
classlabel = "FALSE"

[[record]]
compound = "CCCC(=O)OCC(COC(=O)CCC)OC(=O)CCC"
classlabel = "FALSE"


QUERY: Test call for this compound, please: Brc1nc2ccccc2s1
RESULT: FALSE

QUERY: Which result was noted for this compound in the test: CCN(CC)c1ccc(N=Nc2ccccc2)cc1
RESULT: FALSE

QUERY: Call for entry Cc1ccc(S(=O)(=O)C(I)I)cc1 :
RESULT: TRUE

QUERY: Please let me know the test result on file for CC(C)OC=O .
RESULT: FALSE

QUERY: Which outcome did this test record for the compound CCc1ccc(C)nc1 ?
RESULT: FALSE

QUERY: Returns: the outcome recorded for O=c1cccc[nH]1 in this assay.
RESULT: FALSE

QUERY: How did this test come out for Cc1cc(C)c(O)c(C(C)(C)C)c1 ?
RESULT: FALSE

###

- systemTested: human Retinoid X Receptor beta (RXRb), RXRB (gene 6257)
- assayOverview: ATG_RXRb_TRANS: Attagene TRANS-FACTORIAL HepG2 Assay for human Retinoid X Receptor beta (RXRb) (AID 2283013)
Results filed as inconclusive are left out. Active and inactive are the calls of the source. Rule for the calls: active = hit-call score of the fitted dose curve at least 0.9, where 1 is the maximum; inconclusive = response in the unintended direction; inactive = score below 0.9.
metric: outcome

Examples with answers:
[[record]]
compound = "CC(C)Nc1ccc(NC(C)C)c2c1C(=O)c1ccccc1C2=O"
metric = "outcome"
result = "inactive"

[[record]]
compound = "C#CC(O)CCC (configuration not stated)"
metric = "outcome"
result = "inactive"

[[record]]
compound = "OCC1CCCO1 (configuration not stated)"
metric = "outcome"
result = "inactive"

[[record]]
compound = "Cc1cc(=O)[nH]c(C(C)C)n1"
metric = "outcome"
result = "inactive"

[[record]]
compound = "Cc1ccc(S(=O)(=O)C(I)I)cc1"
metric = "outcome"
result = "inactive"

[[record]]
compound = "COc1ccccc1C=O"
metric = "outcome"
result = "inactive"


For this compound ( CC(=O)c1ccccc1N ), measured outcome is inactive

###

- assayOverview: ATG_E_Box_CIS: Attagene CIS-FACTORIAL HepG2 Assay for human Enhancer Box (E-box) (AID 2282936)
- measurementContext: HepG2 E-box cis-reporter transcription, actives raise or lower the signal
Calls of active or inactive are those of the source. How the source made its calls: active means hit-call score of the fitted dose curve at least 0.9, where 1 is the maximum; inactive means score below 0.9.
The reply should be one of these categories: 1 = active, -1 = inactive

[[record]]
compound = "O=C1C=CC(=O)N1c1ccc(Cc2ccc(N3C(=O)C=CC3=O)cc2)cc1"
classlabel = 1


QUERY: Fill in: this test's call for Cc1cc(C)c(O)c(C(C)(C)C)c1 is ___
RESULT: -1

QUERY: // param item: CC1CCCCC1 ; yields the recorded call
RESULT: -1

QUERY: Hello, I am checking results. What call was entered for CCCC(=O)OCC(COC(=O)CCC)OC(=O)CCC ?
RESULT: -1

QUERY: Assay outcome for O=C=Nc1cccc2c(N=C=O)cccc12 : what was it?
RESULT: -1

QUERY: Short answer needed: outcome of this test for OCCC(O)CO (configuration not stated) ?
RESULT: -1

QUERY: Per the assay record, what outcome was assigned to COc1ccccc1C=O ?
RESULT: -1

QUERY: I'd appreciate the recorded outcome for C=C(C)CCCC from this test.
RESULT: -1

QUERY: Hello, I am checking results. What call was entered for CC(=O)C=O ?
RESULT: -1

QUERY: Check the results log: what was the call for O=C(O)C(F)(F)C(F)(F)C(F)(F)OC(F)(F)F ?
RESULT: -1

QUERY: For c1ccc(C[P+](c2ccccc2)(c2ccccc2)c2ccccc2)cc1 , what call appears in the results of this test?
RESULT: -1

QUERY: Outcome? Cc1cccc(C)n1
RESULT: -1

###

- assayOverview: ATG_BRE_CIS: Attagene CIS-FACTORIAL HepG2 Assay for human Bone Morphogenetic Protein (BMP) Response Element (BRE) (AID 2282933)
- measurementContext: HepG2 BMP response element reporter, Attagene transcription factor profiling; actives raise or lower the signal
Calls of active or inactive are those of the source. How the source made its calls: active means hit-call score of the fitted dose curve at least 0.9, where 1 is the maximum; inactive means score below 0.9.
A correct response names exactly one class from active, inactive

Before answering, review these 4 worked examples.
[[record]]
molecule = "CC(C)Nc1ccc(NC(C)C)c2c1C(=O)c1ccccc1C2=O"
classlabel = "inactive"

[[record]]
molecule = "C=C(C)C(=O)OCC(F)(F)C(F)(F)C(F)(F)C(F)F"
classlabel = "inactive"

[[record]]
molecule = "Cc1ccc([N+](=O)[O-])c(C)c1"
classlabel = "inactive"

[[record]]
molecule = "CCCCC(CC)COC(=O)c1ccc(N(C)C)cc1 (stereo not given)"
classlabel = "active"


Let us examine a further case.
QUERY: Give the logged outcome of this assay for the following molecule: C=CC(=O)OCC(F)(F)C(F)(F)C(F)(F)COC(=O)C=C
RESULT: inactive

###

- Read-out: Interleukin-8 (IL8), CXCL8 (gene 3576)
- assayOverview: BSK_SAg_IL8: BioMAP Diversity Plus: SAg Assay for Interleukin-8 (IL8) Biomarker Activity (AID 2283094)
- measurementContext: primary human HUVEC with PBMC; actives raise or lower the signal
- Protocol: BSK_SAg is a cell-based, multiplexed-readout assay that uses umbilical vein endothelium and peripheral blood mononuclear cells, a human vascular primary cell co-culture, with measurements taken at 24 hours after chemical dosing in a 96-well plate.BSK_SAg_IL8 is an assay component measured in the BSK_SAg assay. It measures IL-8 antibody related to regulation of gene expression using ELISA technology.Data from the assay component BSK_SAg_IL8 was analyzed into 1 assay endpoint. […]
Activity calls are given as the source filed them. Rule for the calls: active = hit-call score of the fitted dose curve at least 0.9, where 1 is the maximum; inactive = score below 0.9.
Allowed answers: 1.0 for active, 0.0 for inactive

QUERY: # lookup: test call for NC(=O)C(F)(F)C(F)(F)C(F)(F)C(F)(F)C(F)(F)C(F)(F)C(F)(F)F
RESULT: 0.0

QUERY: Test call for this compound, please: O=C(O)C(F)(F)C(F)(F)C(F)(F)OC(F)(F)F
RESULT: 0.0

###

- assayOverview: ATG_NRF2_ARE_CIS: Attagene CIS-FACTORIAL HepG2 Assay for human Nuclear Factor Erythroid 2 Related Factor 2 (NFR2) response to Antioxidant Response Elements (ARE) (AID 2282992)
- measurementContext: HepG2 Attagene ARE/NRF2 reporter, transcription factor activity; actives raise or lower the signal
- Method: ATG_CIS is a cell-based, multiplexed-readout assay that uses HepG2, a human liver cell line, with measurements taken at 24 hours after chemical dosing in a 24-well plate.ATG_NRF2_ARE_CIS is one of 52 assay component(s) measured or calculated from the ATG_CIS assay. […] This assay endpoint, ATG_NRF2_ARE_CIS, was analyzed with bidirectional fitting relative to DMSO as the negative control and baseline of activity. […]
Activity calls are given as the source filed them. The calls were made as follows: active = hit-call score of the fitted dose curve at least 0.9, where 1 is the maximum; inactive = score below 0.9.
Classes to choose from: active, inactive

[[record]]
compound = "OCC1CCCO1 (stereo not drawn)"
classlabel = "inactive"

[[record]]
compound = "CC(C)CCCC(C)CCO (stereo not drawn)"
classlabel = "inactive"

[[record]]
compound = "NCC(F)(F)C(F)(F)C(F)(F)C(F)(F)C(F)(F)C(F)(F)F"
classlabel = "inactive"

[[record]]
compound = "CCCC(=O)OCC(COC(=O)CCC)OC(=O)CCC"
classlabel = "inactive"

[[record]]
compound = "CC(C)Nc1ccc(NC(C)C)c2c1C(=O)c1ccccc1C2=O"
classlabel = "active"

[[record]]
compound = "O=C(Cl)c1ccc(Cl)cc1Cl"
classlabel = "inactive"

[[record]]
compound = "C=CCOC(=O)CC(C)C"
classlabel = "inactive"

[[record]]
compound = "Cc1cc(=O)[nH]c(C(C)C)n1"
classlabel = "inactive"

[[record]]
compound = "CC(C)C(=O)OCc1ccccc1"
classlabel = "inactive"

[[record]]
compound = "CC(C)(C)c1cc(Cc2cc(C(C)(C)C)c(O)c(C(C)(C)C)c2)cc(C(C)(C)C)c1O"
classlabel = "inactive"


QUERY: Hi team, can someone confirm the assay call for CN1CN(C)CN(C)C1 ?
RESULT: inactive

QUERY: Given CN(C)C(C)(C)CO , state the outcome it received in this test.
RESULT: inactive

QUERY: Dear all, I need the recorded test outcome for OC(O)C(F)(F)C(F)(F)F , thank you.
RESULT: active

QUERY: What did the test return for CCN(CC)c1ccc2c(c1)Oc1cc(N(CC)CC)ccc1C21OC(=O)c2ccccc21 ?
RESULT: active

QUERY: Per the records of this test, what outcome belongs to O=C(Cl)C(F)(F)C(F)(F)C(F)(F)C(F)(F)C(F)(F)C(F)(F)C(F)(F)F ?
RESULT: active

QUERY: // outcome(item) with item = C=C(C)CCCC
RESULT: inactive

QUERY: Outcome? CCN(CCO)S(=O)(=O)C(F)(F)C(F)(F)C(F)(F)C(F)(F)C(F)(F)C(F)(F)C(F)(F)C(F)(F)F
RESULT: active

QUERY: Record request — test call for O=C=Nc1cccc2c(N=C=O)cccc12
RESULT: inactive

QUERY: # outcome recorded in this test, key = Nc1c(Br)cc([N+](=O)[O-])cc1Br
RESULT: active

QUERY: Can you look up the reported call for C[Si](C)O[Si](C)C for me?
RESULT: inactive

QUERY: Short answer needed: outcome of this test for Cc1cc(O)c(C(C)(C)C)cc1C(C)(C)C ?
RESULT: active

QUERY: Can you look up the reported call for CCOC(OCC)OCC for me?
RESULT: inactive

QUERY: What did this assay record as the result for C[Si](Cl)(Cl)CCC(F)(F)C(F)(F)C(F)(F)C(F)(F)C(F)(F)C(F)(F)F ?
RESULT: inactive
